Values from patent US20150290160A1

system: NCI-H23 (lung cancer); assay: MTT cytotoxicity assay, NCI-H23; format: cell-based; settings: Homo sapiens, 72 h, NCI-H23, three day incubation
assay endpoint: pIC50
Kindly note that pIC50 refers to -log10 of the concentration in mol/L and answer with the value alone.

input: Entry NC12CC3CC(CC(C3)C1)C2 , system NCI-H23 (lung cancer): what pIC50 was measured?
output: 2.79
